Molecular target: Fms(h) (Homo sapiens)
Assay: Kinase Profiling Assay
Format: biochemical
Conditions: 100 μM peptide
OBSERVABLE: Fms(h) % activity

>>> reading("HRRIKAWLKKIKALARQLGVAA (Mammalian) [MMI-0500]")
"14%"
>>> reading("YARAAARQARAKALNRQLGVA (Mammalian) [MMI-0200]")
"92%"
>>> reading("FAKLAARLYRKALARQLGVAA [MMI-0300]")
"45%"
>>> reading("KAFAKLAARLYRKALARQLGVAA [MMI-0400]")
"37%"

----------
Molecular target: ULK3(h) (Homo sapiens)
Sequence (Q6PHR2 1-472): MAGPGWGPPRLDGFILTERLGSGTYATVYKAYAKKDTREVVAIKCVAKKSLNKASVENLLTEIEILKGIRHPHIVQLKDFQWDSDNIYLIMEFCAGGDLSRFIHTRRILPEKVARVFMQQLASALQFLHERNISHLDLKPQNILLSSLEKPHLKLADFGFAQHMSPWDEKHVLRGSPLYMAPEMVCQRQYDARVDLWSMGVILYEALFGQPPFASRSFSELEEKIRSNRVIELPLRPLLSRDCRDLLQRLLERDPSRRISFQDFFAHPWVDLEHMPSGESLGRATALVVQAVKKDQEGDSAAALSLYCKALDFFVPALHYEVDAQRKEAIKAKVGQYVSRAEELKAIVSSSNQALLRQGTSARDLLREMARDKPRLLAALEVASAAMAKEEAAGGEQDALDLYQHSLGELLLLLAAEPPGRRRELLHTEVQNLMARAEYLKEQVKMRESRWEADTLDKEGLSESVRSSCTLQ
Experiment: Kinase Profiling Assay
Type: biochemical
Conditions: 100 μM peptide
Measured ULK3(h) % activity values are reported for all entries that follow.
OBSERVABLE: ULK3(h) % activity (%)

>>> reading("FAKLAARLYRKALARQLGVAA [MMI-0300]")
167
>>> reading("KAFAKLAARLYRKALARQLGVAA [MMI-0400]")
147
>>> reading("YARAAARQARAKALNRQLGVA (Mammalian) [MMI-0200]")
164
>>> reading("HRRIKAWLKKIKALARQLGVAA (Mammalian) [MMI-0500]")
177

----------
Target: PKCδ(h) (Homo sapiens)
Sequence (Q05655 whole entry): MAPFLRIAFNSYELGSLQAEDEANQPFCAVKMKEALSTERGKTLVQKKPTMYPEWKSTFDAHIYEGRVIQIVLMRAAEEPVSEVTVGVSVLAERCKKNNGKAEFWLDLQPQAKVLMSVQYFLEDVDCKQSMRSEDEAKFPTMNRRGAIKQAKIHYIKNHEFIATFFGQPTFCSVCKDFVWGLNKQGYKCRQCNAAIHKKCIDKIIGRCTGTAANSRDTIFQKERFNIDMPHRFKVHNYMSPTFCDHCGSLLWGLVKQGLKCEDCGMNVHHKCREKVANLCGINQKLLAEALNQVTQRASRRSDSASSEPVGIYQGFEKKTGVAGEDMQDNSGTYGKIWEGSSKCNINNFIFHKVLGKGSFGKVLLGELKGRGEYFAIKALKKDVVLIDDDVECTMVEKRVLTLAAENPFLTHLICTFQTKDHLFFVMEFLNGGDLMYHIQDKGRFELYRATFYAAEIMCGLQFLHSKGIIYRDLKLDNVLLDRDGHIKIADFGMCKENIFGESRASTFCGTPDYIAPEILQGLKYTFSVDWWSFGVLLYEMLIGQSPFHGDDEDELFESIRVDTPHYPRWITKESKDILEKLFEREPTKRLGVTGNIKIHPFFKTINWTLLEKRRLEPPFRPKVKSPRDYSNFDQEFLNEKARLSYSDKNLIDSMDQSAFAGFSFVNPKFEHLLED
Experiment: Kinase Profiling Assay
Format: biochemical
Settings: 100 μM peptide
// reported PKCδ(h) % activity per item
OBSERVABLE: PKCδ(h) % activity (%)

>>> reading("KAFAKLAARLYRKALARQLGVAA [MMI-0400]")
90
>>> reading("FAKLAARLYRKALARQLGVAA [MMI-0300]")
101
>>> reading("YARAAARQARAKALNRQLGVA (Mammalian) [MMI-0200]")
101
>>> reading("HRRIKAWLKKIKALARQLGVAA (Mammalian) [MMI-0500]")
61

----------
Target: LOK(h) (Homo sapiens, UniProt O94804)
Sequence (O94804 whole entry): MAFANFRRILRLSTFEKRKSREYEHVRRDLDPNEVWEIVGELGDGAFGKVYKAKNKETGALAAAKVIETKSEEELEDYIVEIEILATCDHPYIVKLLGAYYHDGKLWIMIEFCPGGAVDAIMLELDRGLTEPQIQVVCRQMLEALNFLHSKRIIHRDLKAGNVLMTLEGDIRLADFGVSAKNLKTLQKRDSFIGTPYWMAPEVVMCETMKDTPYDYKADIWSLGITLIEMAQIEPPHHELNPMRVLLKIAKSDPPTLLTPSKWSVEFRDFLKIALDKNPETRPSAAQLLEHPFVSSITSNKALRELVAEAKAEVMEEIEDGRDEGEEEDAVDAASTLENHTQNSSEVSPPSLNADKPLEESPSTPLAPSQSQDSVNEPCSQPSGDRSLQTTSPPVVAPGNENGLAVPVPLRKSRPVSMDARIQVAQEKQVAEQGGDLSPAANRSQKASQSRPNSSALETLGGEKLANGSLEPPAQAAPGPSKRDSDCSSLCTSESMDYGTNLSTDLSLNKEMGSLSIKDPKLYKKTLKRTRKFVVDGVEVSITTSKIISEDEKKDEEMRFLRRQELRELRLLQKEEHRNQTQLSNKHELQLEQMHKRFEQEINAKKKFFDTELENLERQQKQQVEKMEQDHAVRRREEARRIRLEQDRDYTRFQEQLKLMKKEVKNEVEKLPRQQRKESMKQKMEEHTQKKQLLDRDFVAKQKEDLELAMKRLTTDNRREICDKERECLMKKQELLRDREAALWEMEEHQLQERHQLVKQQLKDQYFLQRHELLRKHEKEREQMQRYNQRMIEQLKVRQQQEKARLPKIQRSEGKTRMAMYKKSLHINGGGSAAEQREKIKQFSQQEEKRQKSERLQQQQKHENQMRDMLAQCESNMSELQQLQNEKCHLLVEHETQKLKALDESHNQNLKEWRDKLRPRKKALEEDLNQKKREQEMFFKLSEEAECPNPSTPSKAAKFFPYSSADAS
Test: Kinase Profiling Assay
Format: biochemical
Settings: 100 μM peptide
OBSERVABLE: LOK(h) % activity (%)

>>> reading("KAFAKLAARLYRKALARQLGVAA [MMI-0400]")
18
>>> reading("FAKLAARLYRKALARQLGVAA [MMI-0300]")
37
>>> reading("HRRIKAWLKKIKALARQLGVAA (Mammalian) [MMI-0500]")
7
>>> reading("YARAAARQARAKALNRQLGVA (Mammalian) [MMI-0200]")
67

----------
Molecular target: PASK(h) (Homo sapiens, UniProt Q96RG2)
Sequence (Q96RG2 whole entry): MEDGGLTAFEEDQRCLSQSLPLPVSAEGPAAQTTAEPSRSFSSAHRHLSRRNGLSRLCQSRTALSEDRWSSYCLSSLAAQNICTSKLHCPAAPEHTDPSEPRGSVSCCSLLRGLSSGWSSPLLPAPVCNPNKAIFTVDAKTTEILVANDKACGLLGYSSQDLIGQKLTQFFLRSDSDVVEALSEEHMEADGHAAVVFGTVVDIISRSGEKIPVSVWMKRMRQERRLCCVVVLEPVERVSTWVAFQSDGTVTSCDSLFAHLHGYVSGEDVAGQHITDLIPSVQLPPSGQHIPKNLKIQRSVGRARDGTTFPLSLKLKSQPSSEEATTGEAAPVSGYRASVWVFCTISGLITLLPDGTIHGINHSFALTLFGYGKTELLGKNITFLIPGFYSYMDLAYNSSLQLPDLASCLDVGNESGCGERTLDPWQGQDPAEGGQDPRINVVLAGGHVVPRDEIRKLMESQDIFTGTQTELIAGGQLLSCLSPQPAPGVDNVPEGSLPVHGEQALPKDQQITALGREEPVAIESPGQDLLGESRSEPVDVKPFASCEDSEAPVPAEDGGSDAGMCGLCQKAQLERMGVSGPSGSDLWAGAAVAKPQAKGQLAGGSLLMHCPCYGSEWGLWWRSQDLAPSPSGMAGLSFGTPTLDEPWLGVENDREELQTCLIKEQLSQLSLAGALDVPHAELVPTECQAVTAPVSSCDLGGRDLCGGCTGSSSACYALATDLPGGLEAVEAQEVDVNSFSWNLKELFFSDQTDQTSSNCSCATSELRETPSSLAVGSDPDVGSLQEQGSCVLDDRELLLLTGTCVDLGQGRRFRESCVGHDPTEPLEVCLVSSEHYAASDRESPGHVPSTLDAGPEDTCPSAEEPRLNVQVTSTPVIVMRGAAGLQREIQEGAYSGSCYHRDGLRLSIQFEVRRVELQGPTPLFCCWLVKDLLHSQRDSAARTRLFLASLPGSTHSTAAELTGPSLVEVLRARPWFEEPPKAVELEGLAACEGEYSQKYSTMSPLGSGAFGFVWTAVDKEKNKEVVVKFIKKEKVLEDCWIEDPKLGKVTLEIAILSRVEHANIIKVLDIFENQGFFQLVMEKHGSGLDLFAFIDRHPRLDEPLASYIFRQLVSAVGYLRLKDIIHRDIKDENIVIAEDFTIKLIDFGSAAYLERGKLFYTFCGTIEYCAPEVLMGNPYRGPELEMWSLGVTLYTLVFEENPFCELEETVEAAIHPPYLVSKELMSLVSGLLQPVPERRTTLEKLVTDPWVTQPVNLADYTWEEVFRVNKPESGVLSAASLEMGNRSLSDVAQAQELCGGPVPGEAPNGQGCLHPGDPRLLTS
Assay: Kinase Profiling Assay
Type: biochemical
Settings: 100 μM peptide
OBSERVABLE: PASK(h) % activity (%)

>>> reading("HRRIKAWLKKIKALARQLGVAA (Mammalian) [MMI-0500]")
9
>>> reading("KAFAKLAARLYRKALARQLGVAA [MMI-0400]")
28
>>> reading("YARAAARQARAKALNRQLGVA (Mammalian) [MMI-0200]")
60
>>> reading("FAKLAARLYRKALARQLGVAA [MMI-0300]")
29

----------
Biological target: Ron(h) (Homo sapiens)
Construct: purchased Millipore (IC50 Profiler Express service)
Assay: Kinase Profiling Assay
Type: biochemical
Settings: 100 μM peptide
In this section we review reported Ron(h) % activity values for a set of sequences.
OBSERVABLE: Ron(h) % activity (%)

>>> reading("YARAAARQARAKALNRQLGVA (Mammalian) [MMI-0200]")
120
>>> reading("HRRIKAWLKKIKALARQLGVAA (Mammalian) [MMI-0500]")
46
>>> reading("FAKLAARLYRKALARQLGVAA [MMI-0300]")
93
>>> reading("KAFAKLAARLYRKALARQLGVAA [MMI-0400]")
79

----------
Molecular target: MST1(h) (Homo sapiens, UniProt Q13043)
Sequence (Q13043 1-487): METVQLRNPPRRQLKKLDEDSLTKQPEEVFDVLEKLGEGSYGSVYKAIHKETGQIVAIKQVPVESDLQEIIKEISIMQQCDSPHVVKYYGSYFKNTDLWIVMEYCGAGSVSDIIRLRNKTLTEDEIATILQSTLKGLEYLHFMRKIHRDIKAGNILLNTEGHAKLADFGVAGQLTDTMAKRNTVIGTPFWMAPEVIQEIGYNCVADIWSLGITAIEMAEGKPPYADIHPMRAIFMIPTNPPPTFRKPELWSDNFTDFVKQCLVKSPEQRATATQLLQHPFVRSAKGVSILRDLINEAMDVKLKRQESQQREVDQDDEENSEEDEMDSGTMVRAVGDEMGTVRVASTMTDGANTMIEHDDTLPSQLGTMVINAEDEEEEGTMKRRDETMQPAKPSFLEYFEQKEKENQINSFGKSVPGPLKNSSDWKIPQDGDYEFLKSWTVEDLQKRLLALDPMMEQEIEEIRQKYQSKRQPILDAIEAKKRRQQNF
Assay: Kinase Profiling Assay
Assay type: biochemical
Conditions: 100 μM peptide
OBSERVABLE: MST1(h) % activity (%)

>>> reading("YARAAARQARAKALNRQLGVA (Mammalian) [MMI-0200]")
72
>>> reading("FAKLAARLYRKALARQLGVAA [MMI-0300]")
14
>>> reading("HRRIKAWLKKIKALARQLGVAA (Mammalian) [MMI-0500]")
3
>>> reading("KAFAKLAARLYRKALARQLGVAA [MMI-0400]")
6

----------
Target: Src(T341M)(h) (Homo sapiens, UniProt P12931, T341M)
Test: Kinase Profiling Assay
Type: biochemical
Conditions: 100 μM peptide
Listed here: items and their measured Src(T341M)(h) % activity.
OBSERVABLE: Src(T341M)(h) % activity (%)

>>> reading("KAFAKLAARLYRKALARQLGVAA [MMI-0400]")
76
>>> reading("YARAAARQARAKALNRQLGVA (Mammalian) [MMI-0200]")
56
>>> reading("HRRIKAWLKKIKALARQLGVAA (Mammalian) [MMI-0500]")
59
>>> reading("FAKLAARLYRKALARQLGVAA [MMI-0300]")
70

----------
Target: FGFR4(h) (Homo sapiens)
Experiment: Kinase Profiling Assay
Type: biochemical
Details: 100 μM peptide
This section presents sequences with their documented FGFR4(h) % activity values.
OBSERVABLE: FGFR4(h) % activity (%)

>>> reading("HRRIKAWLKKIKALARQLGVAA (Mammalian) [MMI-0500]")
3
>>> reading("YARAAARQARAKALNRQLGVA (Mammalian) [MMI-0200]")
75
>>> reading("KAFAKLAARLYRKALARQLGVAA [MMI-0400]")
19
>>> reading("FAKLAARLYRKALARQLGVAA [MMI-0300]")
28

----------
Biological target: Flt1(h) (Homo sapiens)
Sequence (P17948 27-1338): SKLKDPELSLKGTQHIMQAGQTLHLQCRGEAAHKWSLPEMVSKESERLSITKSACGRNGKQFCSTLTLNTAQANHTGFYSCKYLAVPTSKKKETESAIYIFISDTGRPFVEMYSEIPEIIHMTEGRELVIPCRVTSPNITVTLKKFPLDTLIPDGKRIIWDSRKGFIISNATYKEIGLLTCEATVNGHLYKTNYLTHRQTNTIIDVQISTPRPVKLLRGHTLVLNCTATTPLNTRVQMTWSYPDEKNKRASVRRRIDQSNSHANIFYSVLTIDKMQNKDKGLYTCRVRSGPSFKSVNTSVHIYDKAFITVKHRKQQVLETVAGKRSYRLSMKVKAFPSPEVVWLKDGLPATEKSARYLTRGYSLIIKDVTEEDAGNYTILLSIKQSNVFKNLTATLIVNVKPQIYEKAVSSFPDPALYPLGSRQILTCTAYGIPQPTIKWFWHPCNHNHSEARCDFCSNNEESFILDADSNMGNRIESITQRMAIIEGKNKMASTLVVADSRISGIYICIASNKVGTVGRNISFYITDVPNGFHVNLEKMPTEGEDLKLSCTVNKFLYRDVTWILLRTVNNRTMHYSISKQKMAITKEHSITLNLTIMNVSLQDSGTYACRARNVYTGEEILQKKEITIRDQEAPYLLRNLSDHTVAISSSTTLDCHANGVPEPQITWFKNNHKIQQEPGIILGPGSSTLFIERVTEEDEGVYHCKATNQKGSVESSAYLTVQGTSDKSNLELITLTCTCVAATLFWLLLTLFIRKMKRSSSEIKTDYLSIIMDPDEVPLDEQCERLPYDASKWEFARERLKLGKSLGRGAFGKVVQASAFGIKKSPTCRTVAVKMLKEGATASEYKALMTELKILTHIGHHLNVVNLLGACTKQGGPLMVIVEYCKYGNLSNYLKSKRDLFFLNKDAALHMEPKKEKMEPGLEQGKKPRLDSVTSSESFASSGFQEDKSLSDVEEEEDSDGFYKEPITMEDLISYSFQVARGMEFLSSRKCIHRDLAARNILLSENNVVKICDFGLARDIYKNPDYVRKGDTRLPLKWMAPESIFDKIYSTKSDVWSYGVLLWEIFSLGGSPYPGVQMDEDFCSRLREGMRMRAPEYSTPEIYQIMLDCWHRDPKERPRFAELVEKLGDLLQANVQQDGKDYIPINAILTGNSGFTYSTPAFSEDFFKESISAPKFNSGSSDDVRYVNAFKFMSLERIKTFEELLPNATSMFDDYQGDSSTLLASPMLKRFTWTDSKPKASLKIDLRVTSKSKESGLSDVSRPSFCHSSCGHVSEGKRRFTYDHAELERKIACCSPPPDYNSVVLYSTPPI
Test: Kinase Profiling Assay
Format: biochemical
Conditions: 100 μM peptide
OBSERVABLE: Flt1(h) % activity (%)

>>> reading("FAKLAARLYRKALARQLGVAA [MMI-0300]")
69
>>> reading("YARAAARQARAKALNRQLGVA (Mammalian) [MMI-0200]")
96
>>> reading("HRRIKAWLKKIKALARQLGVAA (Mammalian) [MMI-0500]")
27
>>> reading("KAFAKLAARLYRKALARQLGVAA [MMI-0400]")
48

----------
DMPK(h) % activity values for the sequences below.
Target: DMPK(h) (Homo sapiens)
Sequence (Q09013 1-629): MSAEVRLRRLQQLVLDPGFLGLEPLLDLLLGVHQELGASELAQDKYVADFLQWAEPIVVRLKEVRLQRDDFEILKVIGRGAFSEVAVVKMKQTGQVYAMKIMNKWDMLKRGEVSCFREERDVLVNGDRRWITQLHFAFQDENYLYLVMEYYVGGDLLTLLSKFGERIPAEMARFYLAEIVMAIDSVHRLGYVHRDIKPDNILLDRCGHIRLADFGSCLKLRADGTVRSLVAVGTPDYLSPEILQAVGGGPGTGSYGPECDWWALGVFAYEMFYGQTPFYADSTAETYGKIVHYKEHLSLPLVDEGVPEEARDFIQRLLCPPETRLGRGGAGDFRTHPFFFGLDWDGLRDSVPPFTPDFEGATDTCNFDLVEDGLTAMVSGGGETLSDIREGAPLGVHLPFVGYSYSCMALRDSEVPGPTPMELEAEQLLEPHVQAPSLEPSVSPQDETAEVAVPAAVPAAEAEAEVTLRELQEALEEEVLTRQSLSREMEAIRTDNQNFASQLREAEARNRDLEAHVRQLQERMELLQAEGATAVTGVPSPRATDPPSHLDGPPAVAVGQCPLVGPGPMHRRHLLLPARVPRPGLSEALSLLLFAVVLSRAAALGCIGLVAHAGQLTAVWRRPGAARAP
Experiment: Kinase Profiling Assay
Type: biochemical
Settings: 100 μM peptide
OBSERVABLE: DMPK(h) % activity (%)

>>> reading("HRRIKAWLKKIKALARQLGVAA (Mammalian) [MMI-0500]")
12
>>> reading("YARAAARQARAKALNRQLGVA (Mammalian) [MMI-0200]")
66
>>> reading("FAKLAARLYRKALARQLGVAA [MMI-0300]")
59
>>> reading("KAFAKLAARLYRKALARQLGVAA [MMI-0400]")
54

Cited source for all entries: patent US10562947B2
